System: A498 renal
Test: NCI tumour cell line growth inhibition, 48 h
Measured TGI values are reported for all entries that follow.

- compound: "COc1cccc2c1[C@]1(O)C(O)CCCC21 (stereo partly specified)"
  TGI: "> 100 µM"
- compound: "C=C1C(=O)O[C@H]2[C@H]1CC/C(COC(=O)/C=C/c1c[nH]c3ccccc13)=C\\CC[C@@]1(C)O[C@@H]21"
  TGI: "1.13 µM"
- compound: "NC(=S)N/N=C\\c1nccc2c(C(F)(F)C(F)(F)C(F)(F)F)cccc12"
  TGI: "2.1 µM"
- compound: "COc1cc(CC2CC(c3ccc4c(c3)OCO4)OC2=O)cc(OC)c1OC (stereo unspecified)"
  TGI: "> 100 µM"
- compound: "COc1ccc(N2C(=O)C(N3C(=O)C=CC3=O)C2C=O)cc1 (stereo unspecified)"
  TGI: "> 100 µM"
- compound: "COC(=O)c1nn(C(=N)c2ccc(Cl)cc2)c2c1CCCCC2"
  TGI: "> 100 µM"
- compound: "Cn1c(=O)c2[nH]c(CCC(=O)O)nc2n(C)c1=O"
  TGI: "> 100 µM"
- compound: "N[C@H](C(=O)O)[C@@H](Cl)CC(=O)O"
  TGI: "> 100 µM"
- compound: "CC1(C)N=C(N)N=C(N)N1c1ccc(OCCCOc2ccccc2)c(Cl)c1"
  TGI: "30.2 µM"
- compound: "O=C1OC2C=CC1C1(CCOC1=O)C2 (stereo unspecified)"
  TGI: "> 100 µM"
- compound: "Cc1cc(Cl)ccc1NC(=O)CCCC(=O)C(C(=O)c1ccccc1)c1ccccc1 (stereo unspecified)"
  TGI: "> 100 µM"
- compound: "C=Cc1cnc([N+](=O)[O-])n1C"
  TGI: "98.7 µM"
- compound: "FC(F)(F)c1cc(NC2=NCCN=C(Nc3cc(C(F)(F)F)cc(C(F)(F)F)c3)SS2)cc(C(F)(F)F)c1"
  TGI: "9.68 µM"
- compound: "C[C@H]1CC2=CC(=O)CC[C@]2(C)[C@H]2CC[C@@]3(C)[C@@H](CC[C@]3(C)O)[C@H]12"
  TGI: "> 82.8 µM"
- compound: "Cc1cccc2c1C(=O)[C@@](C)([C@]1(C)Nc3cccc(C)c3C1=O)N2"
  TGI: "> 100 µM"
- compound: "O=c1oc2cc(OS(=O)(=O)c3ccccc3)ccc2c2c1CCCCC2"
  TGI: "> 100 µM"
- compound: "Cc1ccc(S(=O)(=O)N2CCN(CCO)CCN(S(=O)(=O)c3ccc(C)cc3)CCN(CCO)CC2)cc1"
  TGI: "62.7 µM"
- compound: "COc1cc(-c2[o+]c3cc(O)cc(OC4OC(CO)C(O)C(O)C4O)c3cc2OC2OC(CO)C(O)C(O)C2O)cc(OC)c1O (stereo unspecified)"
  TGI: "> 100 µM"
- compound: "CNC(C)Cc1ccc(O)cc1 (stereo unspecified)"
  TGI: "> 100 µM"
- compound: "N=C1C(c2nc(-c3ccc(Br)cc3)cs2)=C(O)CN1CC1CCCO1 (stereo unspecified)"
  TGI: "> 100 µM"
- compound: "c1ccc2c(c1)c1c3n2-c2cc(on2)C3CCC1 (stereo unspecified)"
  TGI: "> 100 µM"
